Measured values drawn from paper PMC6479946 for this set.

Test: in vivo
Settings: male, Sprague-Dawley, rat, in vivo, po, 80 mg/kg, Cmax of HAR, rat plasma; oral HAR 80.0 mg/kg + MEM 5.0 mg/kg (HAR-H + MEM); n = 8, mean ± SD
observable: Cmax (ng/mL)

* COc1ccc2c(c1)[nH]c1c(C)nccc12 | 755

----------
Experiment: Pharmacokinetic study in rats after oral HAR and MEM alone and in combination (plasma, UPLC-MS/MS, non-compartmental)
Details: male, Sprague-Dawley, rat, plasma, po, 5 mg/kg, Ke of MEM, rat plasma; oral MEM 5.0 mg/kg + HAR 80.0 mg/kg (HAR-H + MEM); n = 8, mean ± SD
Protocol: The analytes were separated on an ACQUITY UPLC BEH C18 column (2.1 mm × 50 mm, 1.7 μm, Waters, Milford, USA). […] The flow rate was 0.3 mL/min. The column and sample-tray temperature were kept at 40 °C and 4 °C, respectively. The injection volume was 5.0 μL using a partial loop with needle over fill mode. […] All standard curves and quantitative data were processed by Agilent Mass Hunter Quantitative Analysis Workstation Software. […]
observable: k el (s⁻¹)

- CC12CC3CC(C)(C1)CC(N)(C3)C2 [MEM, 1-amino-3,5-dimethyladamantane, reference compound]: 5.64e-05
